- System Name: T1, recombinant human PAD4 (human, UniProt Q9UM07 1-663)
- T1 construct: also called rhPAD4; hPAD4
- T1 sequence (Q9UM07 whole entry): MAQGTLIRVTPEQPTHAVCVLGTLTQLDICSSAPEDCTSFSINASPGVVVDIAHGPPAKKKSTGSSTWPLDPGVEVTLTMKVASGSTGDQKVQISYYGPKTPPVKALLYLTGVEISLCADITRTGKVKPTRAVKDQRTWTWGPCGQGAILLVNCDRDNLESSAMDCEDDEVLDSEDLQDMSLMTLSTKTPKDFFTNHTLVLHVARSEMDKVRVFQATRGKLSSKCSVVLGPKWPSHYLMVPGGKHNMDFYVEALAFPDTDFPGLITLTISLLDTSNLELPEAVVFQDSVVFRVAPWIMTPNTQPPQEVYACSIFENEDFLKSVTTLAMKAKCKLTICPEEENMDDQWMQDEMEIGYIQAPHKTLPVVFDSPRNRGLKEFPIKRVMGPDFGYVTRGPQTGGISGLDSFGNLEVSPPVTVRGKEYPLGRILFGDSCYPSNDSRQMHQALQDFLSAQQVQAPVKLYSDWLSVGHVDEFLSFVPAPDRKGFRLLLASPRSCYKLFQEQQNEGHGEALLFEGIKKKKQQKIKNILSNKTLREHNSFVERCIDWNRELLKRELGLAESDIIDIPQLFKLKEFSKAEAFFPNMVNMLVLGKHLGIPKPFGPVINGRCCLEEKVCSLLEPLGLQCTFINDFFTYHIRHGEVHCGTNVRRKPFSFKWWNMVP
- Method: SPR 37 C, captured antibody, PAD4 analyte, 1 mM CaCl2
Reported pKd values follow for various binders
Units for pKd: none; it is -log10 of a concentration expressed in mol/L.

Take a look at these entries with their results.
hz20-11 (antibody, V domains shown, light constant region not tied to this antibody) VH: QVQLVQSGAEVAKPGASVKVSCKASGYTFTNYGISWVRQRPGQGLEWMGEIYPRSGNTYHNEKFKDRVTMTTDTSTSTAYMELRSLRSEDTAVYYCARSMITTRYWYFDVWGKGTTVTVSS VL: DIVMTQSPDSLAVSLGERATINCRASESVDTYGNSFMHWYQQKPGQPPKLLIYLASNLESGVPDRFSGSGSGTDFTLTISSLQAEDVAVYYCQQNNEDPLTFGQGTKLEIK | 9.05
hz20-1 (antibody, V domains shown, light constant region not tied to this antibody) VH: QVQLVQSGAEVKKPGASVKVSCKASGYTFTNYGISWVRQAPGQGLEWMGEIYPRSGNTYHNEKFKDRVTMTRDTSTSTVYMELSSLRSEDTAVYYCARSMITTRYWYFDVWGKGTTVTVSS VL: DIVMTQSPDSLAVSLGERATINCRASESVDTYGNSFMHWYQQKPGQPPKLLIYLASNLESGVPDRFSGSGSGTDFTLTISSLQAEDVAVYYCQQNNEDPLTFGAGTKLELK | 8.57
hz13-4 (antibody, V domains shown, light constant region not tied to this antibody) VH: EVLLVQSGAEVKKPGASVKLSCTSSDFNIKDHFIHWVRQAPGKGLEWMGRIDPEDDETKYAPKFQDRVTMTADTSTDTAYMELSSLRSEDTAVFYCAGYGNYEGAMDYWGQGTLVTVSS VL: DIQMTQSPSSLSASVGDRVTITCRASENVNNYGIGFMNWYQQKPGKAPKLLIYAASRRGSGVPSRFSGSGSGTDFTLTISSLQPEDFATYYCQQSKEVPYTFGQGTKVEIK | 10.00
hz13-6 (antibody, V domains shown, light constant region not tied to this antibody) VH: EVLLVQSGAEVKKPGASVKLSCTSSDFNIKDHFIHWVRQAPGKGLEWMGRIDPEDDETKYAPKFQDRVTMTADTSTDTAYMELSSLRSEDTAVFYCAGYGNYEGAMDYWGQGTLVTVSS VL: DIVMTQSPSSLSASVGDRVTLTCRASENVNNYGIGFMNWFQQKPGKAPKLLIYAASRRGSGVPSRFSGSGSGTDFTLTISSMQPEDFATYFCQQSKEVPYTFGQGTKLEIK | 10.00

Please examine the following record next.
Asked: So what does the record say about pKd for hz20-2 (antibody, IgG1, V domains shown, also called clone 20-based hz20-2 antibody) VH: QVQLVQSGAEVKKPGASVKVSCKASGYTFTNYGISWVRQAPGQGLEWMGEIYPRSGNTYHNEKFKDRVTMTTDTSTSTAYMELRSLRSDDTAVYYCARSMITTRYWYFDVWGQGTLVTVSS VL: DIQMTQSPSSLSASVGDRVTITCRASESVDTYGNSFMHWYQQKPGKAPKLLIYLASNLESGVPSRFSGSGSGTDFTLTISSLQPEDFATYYCQQNNEDPLTFGQGTKVEIK ?
Given back: 8.96
